Measured values drawn from PubChem BioAssay for this set.

test: inhibitors of TNFa-induced NFkB p65 translocation, primary screen, imaging, HUVEC, MLSMR starter and 10KST1 sets (AID 438); settings: HUVEC TNFa-induced p65 nuclear translocation; measured here: nuclei count (cytotoxicity indicator), at 2.08 µM;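 further: compound added about 3h40 before a 20 min TNFalpha stimulation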
Exercise: for every item that follows, state its recorded cell count.

# compound `O=C(Cc1cccs1)Nc1nnc(CCc2ccccc2)s1` ; its cell count = 382

# compound `CCOc1ccc(-c2nnc3sc(-c4c(OC)cccc4OC)nn23)cc1` ; its cell count = 434

# compound `C=CCn1c(CC#N)nnc1N1CCOCC1` ; its cell count = 481

# compound `O=S(=O)(Nc1ncccn1)c1ccc(Nc2ncnc3ccccc23)cc1` ; its cell count = 623

# compound `Cc1nc2ccc(S(=O)(=O)NCC(=O)N(C)Cc3ccco3)cc2s1` ; its cell count = 355

# compound `O=C(CSc1ncnc2c1cnn2-c1ccccc1)Nc1ccccc1` ; its cell count = 316

# compound `CCOc1ccc2nc(SCC(=O)N3CCCCCC3)c(C#N)cc2c1` ; its cell count = 611

# compound `Cc1cc(C)n2cc(CSc3nnnn3C)nc2n1` ; its cell count = 532

# compound `Cc1c(C(=O)NC2CC2)oc2ccc(S(=O)(=O)N3CCCCCC3)cc12` ; its cell count = 635

# compound `CCc1nnc(NC(=O)CSc2nnc3scc(-c4ccc(C)cc4)n23)s1` ; its cell count = 684

# compound `Cc1nc2scc(-c3cccs3)c2c(=O)n1-n1cccc1` ; its cell count = 506

# compound Cc1cccc(C)c1NC(=O)CS(=O)CC(=O)NC1CCCc2ccccc21 (centres undefined) ; its cell count = 562

# compound `Cc1c(C)n(C)c2ccc(C(=O)NCc3cccs3)cc12` ; its cell count = 461

# compound O=C1NC2(Nc3ccccc31)C(=O)Nc1ccccc12 (centres undefined) ; its cell count = 361

# compound `Cc1csc(NC(=O)c2cccs2)n1` ; its cell count = 464

# compound `CC(C)N(C(=O)N1CCC(c2nc(-c3ccncc3)no2)CC1)C(C)C` ; its cell count = 653

# compound CC1=C(C(=O)N2CCCCC2)C2(CCC(C)CC2)OC1=O (centres undefined) ; its cell count = 759

# compound `CC(=O)c1ccccc1NS(=O)(=O)c1c(C)nn(-c2ccccc2)c1C` ; its cell count = 580

# compound COc1ccc(NC(=O)C(C)Oc2ccc(/C(C)=N\O)cc2)cc1 (centres undefined) ; its cell count = 581

# compound `Cc1ccc(S(=O)(=O)NCCN2CCOCC2)cc1C` ; its cell count = 408

# compound CCOC(=O)CN1CC23C=CC(O2)C(C(=O)NC2CCCC2)C3C1=O (centres undefined) ; its cell count = 671

# compound `Cn1c(CCNC(=O)c2ccco2)nc2cc(NC(=O)C3CCCCC3)ccc21` ; its cell count = 359

# compound `CN(C)c1nc(Oc2ccc(=O)n(C)n2)nc(N2CCOCC2)n1` ; its cell count = 306

# compound `NCCN1CCN(CCN)CC1` ; its cell count = 728

---

assay: inhibitors of TNFa-induced NFkB p65 translocation, primary screen, imaging, HUVEC, MLSMR starter and 10KST1 sets (AID 438); conditions: HUVEC TNFa-induced p65 nuclear translocation; measured here: nuclei count (cytotoxicity indicator), at 2.08 µM;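 further: compound added about 3h40 before a 20 min TNFalpha stimulation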
Quick rule for you: cell count at 500 or higher means y, lower means n.

Please check the record Cc1ccc(S(=O)(=O)C(C#N)c2nc3ccccc3nc2N2CCCCC2)cc1 (configuration not stated) and state if its cell count is at or above 500.
n

Please check the record `N#CCc1c(C#N)c(N)nc(N2CCN(S(=O)(=O)c3ccccc3)CC2)c1C#N` and state if its cell count is at or above 500.
n

Please check the record `CCOC(=O)c1c(NC(=O)Cn2c(=O)oc3ccccc32)oc(C)c1C(C)=O` and state if its cell count is at or above 500.
n

Please check the record `CCOC(=O)c1ccc(NC(=O)c2ccc(NS(C)(=O)=O)cc2)cc1` and state if its cell count is at or above 500.
n

Please check the record `CCN(C1CCCCC1)S(=O)(=O)c1ccc(OC)c(C)c1` and state if its cell count is at or above 500.
y

Please check the record `O=C(Nc1nccs1)c1cccc(NC(=O)C2CC2)c1` and state if its cell count is at or above 500.
n

Please check the record Cc1ccc(NC(=O)C2CC=CCC2C(=O)N2CCCCC2)cc1 (configuration not stated) and state if its cell count is at or above 500.
y

Please check the record `Cn1c(=O)c(=O)n(C)c2cc(S(=O)(=O)N3CCN(c4cccc(C(F)(F)F)c4)CC3)ccc21` and state if its cell count is at or above 500.
n

Please check the record `Nc1ncnc2nc(Sc3ccc(Cl)cc3)[nH]c12` and state if its cell count is at or above 500.
y

Please check the record O=C(NCCOC(=O)C1COc2ccccc2O1)C1COc2ccccc2O1 (configuration not stated) and state if its cell count is at or above 500.
n

Please check the record `CCOC(=O)N1CCC(Nc2ncnc3c2cnn3-c2ccc(C)cc2C)CC1` and state if its cell count is at or above 500.
y

Please check the record `Cc1nc2ccccc2c2oc(C(=O)N3CCN(C(=O)c4ccco4)CC3)cc12` and state if its cell count is at or above 500.
y

Please check the record `Cc1ccc2nc(-c3ccc4c(c3)OCCO4)cc(C(=O)O)c2c1` and state if its cell count is at or above 500.
n

Please check the record COC(=O)c1ccc(C2CC(=O)Nc3cc(OC)c(OC)c(OC)c32)cc1 (configuration not stated) and state if its cell count is at or above 500.
n

Please check the record Cc1c(C(=O)OCC(C)C)[nH]c2c1C(=O)CC(c1ccco1)C2 (configuration not stated) and state if its cell count is at or above 500.
n

Please check the record `CCOC(=O)c1ccc(NCc2nc3ccccc3[nH]2)cc1` and state if its cell count is at or above 500.
y

Please check the record Cc1c(C(=O)OC2CCC(C)CC2)[nH]c2c1C(=O)CCC2 (configuration not stated) and state if its cell count is at or above 500.
y

Please check the record `CCN(CC)S(=O)(=O)c1ccc2oc(C(=O)N3CCOCC3)c(C)c2c1` and state if its cell count is at or above 500.
y

Please check the record `CC(=O)c1cccc(NS(=O)(=O)c2ccc3c(c2)oc(=O)n3C)c1` and state if its cell count is at or above 500.
n

Please check the record `COc1ccc(S(=O)(=O)N2CN(Cc3ccco3)c3nc4ccccc4nc32)cc1` and state if its cell count is at or above 500.
y
